I'd be grateful if you could share measured viability, T/C for these entries.
# Test system: CN0375-F725-PDC KRAS spheroid viability
# Test Details: Anticancer human tumor CN0375-F725-PDC patient-derived colon carcinoma cell line growth inhibition [KRAS2]
# Condition Notes: second compound 0.0316 µM; first compound 0.1 µM; stronger effect = lower value; spheroids with HUVEC and MSC
One number for each entry, in %.

1. O=C(c1cc(Cc2n[nH]c(=O)c3ccccc23)ccc1F)N1CCN(C(=O)C2CC2)CC1 + C=CC(=O)N1CCN(c2nc(OCC3CCCN3C)nc3c2CCN(c2cccc4cccc(C)c24)C3)CC1CC#N : 104
2. Cn1ncnc1[C@H]1c2n[nH]c(=O)c3cc(F)cc(c23)N[C@@H]1c1ccc(F)cc1 + C=CC(=O)N1CCN(c2nc(OCC3CCCN3C)nc3c2CCN(c2cccc4cccc(C)c24)C3)CC1CC#N : 99.6
3. COc1cc2nccc(Oc3ccc(NC(=O)C4(C(=O)Nc5ccc(F)cc5)CC4)cc3)c2cc1OC + C=CC(=O)N1CCN(c2nc(OCC3CCCN3C)nc3c2CCN(c2cccc4cccc(C)c24)C3)CC1CC#N : 100
4. CCN1CCN(Cc2ccc(Nc3ncc(F)c(-c4cc(F)c5nc(C)n(C(C)C)c5c4)n3)nc2)CC1 + C=CC(=O)N1CCN(c2nc(OCC3CCCN3C)nc3c2CCN(c2cccc4cccc(C)c24)C3)CC1CC#N : 91.8
5. CC(C)n1nc(-c2ccc3oc(N)nc3c2)c2c(N)ncnc21 + C=CC(=O)N1CCN(c2nc(OCC3CCCN3C)nc3c2CCN(c2cccc4cccc(C)c24)C3)CC1CC#N : 42.4
6. CC(=O)OC12COC1CC(O)C1(C)C(=O)C(O)C3=C(C)C(OC(=O)C(O)C(NC(=O)OC(C)(C)C)c4ccccc4)CC(O)(C(OC(=O)c4ccccc4)C21)C3(C)C (stereo not given) + C=CC(=O)N1CCN(c2nc(OCC3CCCN3C)nc3c2CCN(c2cccc4cccc(C)c24)C3)CC1CC#N : 87.2
7. Cn1nccc1Nc1nccc(-c2cc3c(s2)C(C)(C)N(CCN2CCOCC2)C3=O)n1 + C=CC(=O)N1CCN(c2nc(OCC3CCCN3C)nc3c2CCN(c2cccc4cccc(C)c24)C3)CC1CC#N : 97.3
8. CC(C)NCC(C(=O)N1CCN(c2ncnc3c2C(C)CC3O)CC1)c1ccc(Cl)cc1 (stereo not given) + C=CC(=O)N1CCN(c2nc(OCC3CCCN3C)nc3c2CCN(c2cccc4cccc(C)c24)C3)CC1CC#N : 105

Report viability, T/C for each item below.
1. COC(=O)c1ccc2c(C(=Nc3ccc(N(C)C(=O)CN4CCN(C)CC4)cc3)c3ccccc3)c(O)[nH]c2c1 + C=CC(=O)N1CCN(c2nc(OCC3CCCN3C)nc3c2CCN(c2cccc4cccc(C)c24)C3)CC1CC#N
2. CCNC(=O)CC1N=C(c2ccc(Cl)cc2)c2cc(OC)ccc2-n2c(C)nnc21 (stereo not given) + C=CC(=O)N1CCN(c2nc(OCC3CCCN3C)nc3c2CCN(c2cccc4cccc(C)c24)C3)CC1CC#N

A:
1. 95.3
2. 96.6

====

# Test system: CN0375-F725-PDC KRAS spheroid viability
# Test Details: Anticancer human tumor CN0375-F725-PDC cell line growth inhibition [KRAS2];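 also: spheroids exposed to agents for 7 days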
# Condition Notes: compound alone; run of 09/02/2021; spheroids with HUVEC and MSC
Assay Metric: IC50

1) C=CC(=O)N1CCN(c2nc(=O)n(-c3c(C)ccnc3C(C)C)c3nc(-c4c(O)cccc4F)c(F)cc23)C(C)C1 (stereo not given) : > 10 µM
2) CC1OCC2(CCN(c3cnc(Sc4ccnc(N)c4Cl)c(N)n3)CC2)C1N (stereo not given) : > 10 µM
3) COc1cc2nc(C)nc(NC(C)c3cc(N)cc(C(F)(F)F)c3)c2cc1OC1CCOC1 (stereo not given) : 5.43 µM [middle of 6 runs]

Go through the items and report each one's IC50.
1. CNCc1ccccc1-c1csc(C(C)Nc2nc(C)nc3cc(OC)c(OC)cc23)c1 (stereo not given)
2. C=CC(=O)N1CCN(c2nc(OCC3CCCN3C)nc3c2CCN(c2cccc4cccc(C)c24)C3)CC1CC#N (stereo not given)

A:
["1.33 µM [middle of 6 runs]", "2.09 µM [middle of 5 runs]"]

====

Can you tell me viability, T/C for the items I'm about to list?
# Test system: CN0375-F725-PDC KRAS spheroid viability
# Test Details: Anticancer human tumor CN0375-F725-PDC cell line growth inhibition [KRAS2];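 also: spheroids exposed to agents for 7 days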
# Condition Notes: second compound 10 µM; first compound 0.000316 µM; stronger effect = lower value; spheroids with HUVEC and MSC
Answers are plain numbers, in %.

Worked cases, viability, T/C given:
1) Cn1ncnc1[C@H]1c2n[nH]c(=O)c3cc(F)cc(c23)N[C@@H]1c1ccc(F)cc1 + CC1OCC2(CCN(c3cnc(Sc4ccnc(N)c4Cl)c(N)n3)CC2)C1N : 70.9
2) Cn1ncnc1[C@H]1c2n[nH]c(=O)c3cc(F)cc(c23)N[C@@H]1c1ccc(F)cc1 + C=CC(=O)N1CCN(c2nc(=O)n(-c3c(C)ccnc3C(C)C)c3nc(-c4c(O)cccc4F)c(F)cc23)C(C)C1 : 112

API: the following record is the query input.
The compound listed as CC(=O)Nc1cccc(-n2c(=O)n(C3CC3)c(=O)c3c(Nc4ccc(I)cc4F)n(C)c(=O)c(C)c32)c1 + CNCc1ccccc1-c1csc(C(C)Nc2nc(C)nc3cc(OC)c(OC)cc23)c1 shows viability, T/C equal to 0.27

====

# System: CN0375-F725-PDC KRAS spheroid viability
# Test Details: Anticancer human tumor CN0375-F725-PDC cell line growth inhibition [KRAS2]; active = viability on the fitted dose curve at most 10% of control; inactive = the rest;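 also: spheroids exposed to agents for 7 days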
# Condition Notes: second compound 3.16 µM; first compound 0.1 µM; spheroids with HUVEC and MSC
Hi! Could you answer with just one of these? active, inactive

Worked examples, 8 molecules total:
1) O=C(c1cc(Cc2n[nH]c(=O)c3ccccc23)ccc1F)N1CCN(C(=O)C2CC2)CC1 + COc1cc2nc(C)nc(NC(C)c3cc(N)cc(C(F)(F)F)c3)c2cc1OC1CCOC1 : inactive
2) O=C(c1cc(Cc2n[nH]c(=O)c3ccccc23)ccc1F)N1CCN(C(=O)C2CC2)CC1 + CC1OCC2(CCN(c3cnc(Sc4ccnc(N)c4Cl)c(N)n3)CC2)C1N : inactive
3) CC(C)n1nc(-c2ccc3oc(N)nc3c2)c2c(N)ncnc21 + CNCc1ccccc1-c1csc(C(C)Nc2nc(C)nc3cc(OC)c(OC)cc23)c1 : active
4) CCN1CCN(Cc2ccc(Nc3ncc(F)c(-c4cc(F)c5nc(C)n(C(C)C)c5c4)n3)nc2)CC1 + C=CC(=O)N1CCN(c2nc(=O)n(-c3c(C)ccnc3C(C)C)c3nc(-c4c(O)cccc4F)c(F)cc23)C(C)C1 : inactive
5) COc1cc2nccc(Oc3ccc(NC(=O)C4(C(=O)Nc5ccc(F)cc5)CC4)cc3)c2cc1OC + CNCc1ccccc1-c1csc(C(C)Nc2nc(C)nc3cc(OC)c(OC)cc23)c1 : active
6) CC1OCC2(CCN(c3cnc(Sc4ccnc(N)c4Cl)c(N)n3)CC2)C1N (stereo not given) + C=CC(=O)N1CCN(c2nc(OCC3CCCN3C)nc3c2CCN(c2cccc4cccc(C)c24)C3)CC1CC#N : inactive
7) CC1(C)CCC(CN2CCN(c3ccc(C(=O)NS(=O)(=O)c4ccc(NCC5CCOCC5)c([N+](=O)[O-])c4)c(Oc4cnc5[nH]ccc5c4)c3)CC2)=C(c2ccc(Cl)cc2)C1 + C=CC(=O)N1CCN(c2nc(OCC3CCCN3C)nc3c2CCN(c2cccc4cccc(C)c24)C3)CC1CC#N : active
8) CC1OCC2(CCN(c3cnc(Sc4ccnc(N)c4Cl)c(N)n3)CC2)C1N (stereo not given) + C=CC(=O)N1CCN(c2nc(=O)n(-c3c(C)ccnc3C(C)C)c3nc(-c4c(O)cccc4F)c(F)cc23)C(C)C1 : inactive

Q: So what was the verdict on CC(C)n1nc(-c2ccc3oc(N)nc3c2)c2c(N)ncnc21 + C=CC(=O)N1CCN(c2nc(=O)n(-c3c(C)ccnc3C(C)C)c3nc(-c4c(O)cccc4F)c(F)cc23)C(C)C1 in this test?
A: inactive

Q: For CCNC(=O)CC1N=C(c2ccc(Cl)cc2)c2cc(OC)ccc2-n2c(C)nnc21 (stereo not given) + C=CC(=O)N1CCN(c2nc(=O)n(-c3c(C)ccnc3C(C)C)c3nc(-c4c(O)cccc4F)c(F)cc23)C(C)C1 , what call appears in the results of this test?
A: inactive

====

# Test system: CN0375-F725-PDC KRAS spheroid viability
# Test Details: Anticancer human tumor CN0375-F725-PDC cell line growth inhibition [KRAS2];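 also: spheroids exposed to agents for 7 days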
# Condition Notes: compound 0.001 µM; stronger effect = lower value; spheroids with HUVEC and MSC
Assay Metric: viability, T/C

Recorded viability, T/C, per entry:
1. CC(C)n1nc(-c2ccc3oc(N)nc3c2)c2c(N)ncnc21 : 93.1% [middle of 5 runs]
2. CC(=O)Nc1cccc(-n2c(=O)n(C3CC3)c(=O)c3c(Nc4ccc(I)cc4F)n(C)c(=O)c(C)c32)c1 : 71.6% [middle of 5 runs]

Below is a list of compounds. For each, state its recorded viability, T/C.
1. Cn1ncnc1[C@H]1c2n[nH]c(=O)c3cc(F)cc(c23)N[C@@H]1c1ccc(F)cc1
2. CN(C)C/C=C/C(=O)Nc1cc2c(Nc3ccc(F)c(Cl)c3)ncnc2cc1O[C@H]1CCOC1

A:
1. 102% [middle of 5 runs]
2. 94.1% [middle of 5 runs]
